System: Caenorhabditis elegans N2
Assay: mean nematode size ln(EXT) after 48 h, plate-adjusted (DMSO control set to 6) (ln(EXT), control-adjusted); higher = larger nematodes / less growth inhibition
Details: 10 µM; exposure time 48 h
Recorded mean nematode size ln(EXT) (ln) values for a group of compounds are listed next.
property: mean nematode size ln(EXT) (ln)

{"compound": "COC(=O)c1ccc(C(=O)OC)cc1 [Dimethyl terephthalate]", "quantitative_result": 5.83}
{"compound": "CCCCN(CCCC)CCCC [Tributylamine]", "quantitative_result": 6.1}
{"compound": "Clc1ccccc1Cl [1,2-Dichlorobenzene]", "quantitative_result": 6}
{"compound": "CCc1nn(C)c(C(=O)NCc2ccc(C(C)(C)C)cc2)c1Cl [Tebufenpyrad]", "quantitative_result": 3.7}
{"compound": "CN(C)C(=O)C1(N2CCCCC2)CCN(CCC2(c3ccc(Cl)c(Cl)c3)CN(C(=O)c3ccccc3)CCO2)CC1 (stereo not given)", "quantitative_result": 5.77}

###

Test system: Caenorhabditis elegans N2
Assay: mean nematode size ln(EXT) after 48 h, plate-adjusted (DMSO control set to 6) (ln(EXT), control-adjusted); higher = larger nematodes / less growth inhibition
Conditions: 200 µM; exposure time 48 h
Counter-ions that a name gives are not always drawn.
Rule: mean nematode size ln(EXT) (ln) of 5 or more gives t; anything lower gives f.

{"compound": "Cc1occc(=O)c1O [Maltol]", "answer_label": "t"}
{"compound": "O=NN(c1ccccc1)c1ccccc1 [N-Nitrosodiphenylamine]", "answer_label": "t"}
{"compound": "CCCCCCCCCCCCCCCCOS(=O)(=O)O [Sodium cetyl sulfate]", "answer_label": "f"}
{"compound": "O=C1OC(=O)C2C3C=CC(C3)C12 (stereo unspecified) [4,7-Methanoisobenzofuran-1,3-dione, 3A,4,7,7A-tetrahydro-]", "answer_label": "t"}
{"compound": "CO/C=C(/C(=O)OC)c1ccccc1Oc1cc(Oc2ccccc2C#N)ncn1 [Azoxystrobin]", "answer_label": "t"}
{"compound": "Clc1ccc(Cl)cc1 [1,4-Dichlorobenzene]", "answer_label": "t"}
{"compound": "CCOP(=S)(Oc1cnc(C(C)(C)C)nc1)OC(C)C (stereo unspecified) [Tebupirimfos]", "answer_label": "f"}
{"compound": "CC(c1ccc(O)cc1)(c1ccc(O)cc1)c1ccc(O)cc1 [4,4’,4\"-Ethane-1,1,1-triyltriphenol]", "answer_label": "t"}
{"compound": "COCc1cnc(C2=NC(C)(C(C)C)C(=O)N2)c(C(=O)O)c1 (stereo unspecified) [Imazamox]", "answer_label": "t"}
{"compound": "Oc1cc2ccccc2c2ccccc12 [9-Phenanthrol]", "answer_label": "f"}
{"compound": "Nc1cc(Cl)cc(C(=O)O)c1Cl [Chloramben]", "answer_label": "t"}
{"compound": "CCCCN1C(=O)[C@@H]([C@H](O)C2CCCCC2)NC(=O)C12CCN(Cc1ccc(Oc3ccc(C(=O)O)cc3)cc1)CC2 [Aplaviroc hydrochloride]", "answer_label": "t"}
{"compound": "CN1CSC(=S)N(C)C1 [Dazomet]", "answer_label": "t"}
{"compound": "Cc1cccc2ccccc12 [1-Methylnaphthalene]", "answer_label": "t"}
{"compound": "CCCCOCCOCCOCc1cc2c(cc1CCC)OCO2 [Piperonyl butoxide]", "answer_label": "t"}
{"compound": "Clc1ccc(C(c2ccc(Cl)cc2)C(Cl)Cl)cc1 [p,p'-DDD]", "answer_label": "f"}
